These entries and their values trace back to ChEMBL document CHEMBL4130373.

test: Solubility of the compound in physiological saline at 1 mg; format: physicochemical; details: buffer
measurement type: solubility

COc1ccc(N(C)c2cc(C)nc3ccccc23)cc1NC(=O)CCl: Soluble
COc1ccc(N(C)c2cc(C)nc3ccccc23)cc1NC(=O)CN1CCOCC1: Insoluble
COc1ccc(N(C)c2cc(C)nc3ccccc23)cc1: Insoluble
COc1ccc(N(C)c2cc(C)nc3ccccc23)cc1NC(=O)CBr: Soluble
COc1ccc(N(C)c2ccnc3ccccc23)cc1N: Soluble

In: Report measured solubility; entry is `COc1ccc(N(C)c2cc(C)nc3ccccc23)cc1NC(=O)CCCl`
Out: Soluble

In: Quote solubility reported for `COC(=O)CCCC(=O)Nc1cc(N(C)c2cc(C)nc3ccccc23)ccc1OC` please.
Out: Insoluble

In: Report solubility, nothing else, for this molecule: `COc1ccc(N(C)c2cc(C)nc3ccccc23)cc1NC(=O)CN1CCSCC1`
Out: Soluble
